This listing pairs compounds with measured IC50.
STUDY_TARGET: SCD5 (Homo sapiens, UniProt Q86SK9)
Construct: host or cells: Saccharomyces cerevisiae ole1Δ strain (W303 pdr1Δ pdr3Δ background), plasmid pRS316, TDH3 promoter
Sequence (Q86SK9 whole entry): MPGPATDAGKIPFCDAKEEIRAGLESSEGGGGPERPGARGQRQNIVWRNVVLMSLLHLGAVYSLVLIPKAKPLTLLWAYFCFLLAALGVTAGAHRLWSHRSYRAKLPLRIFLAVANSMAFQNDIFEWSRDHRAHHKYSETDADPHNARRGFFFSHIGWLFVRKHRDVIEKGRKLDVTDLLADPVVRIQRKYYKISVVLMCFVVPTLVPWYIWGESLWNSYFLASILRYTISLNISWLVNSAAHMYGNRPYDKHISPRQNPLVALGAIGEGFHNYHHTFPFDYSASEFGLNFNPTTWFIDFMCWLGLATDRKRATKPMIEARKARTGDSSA
ASSAY_TEXT: Growth inhibition of yeast (ole1Δ) expressing human SCD5 as the sole desaturase
Assay type: cell-based
SETTINGS: yeast strain with SCD5 plasmid, OD600 growth read at 40 h; read-out: SCD5 IC50

[
  {
    "COMPOUND": "Cn1cc(-c2nnc(N3CCC(Cc4cc(F)cc(F)c4)CC3)o2)ccc1=O [Compound 19]",
    "COMPARISON_SIGN": "=",
    "IC50, nM": 1000
  },
  {
    "COMPOUND": "Cn1nc(NC(=O)N2CCC(Oc3ccc(F)c(F)c3)CC2)ccc1=O [Compound 80]",
    "COMPARISON_SIGN": "=",
    "IC50, nM": 1190
  },
  {
    "COMPOUND": "Cn1nc(NC(=O)N2CCC(COc3ccccc3Cl)CC2)ccc1=O [Compound 98]",
    "COMPARISON_SIGN": "=",
    "IC50, nM": 1350
  },
  {
    "COMPOUND": "Cn1nc(NC(=O)N2CCC(Cc3cc(F)cc(Cl)c3)CC2)ccc1=O [Compound 55]",
    "COMPARISON_SIGN": "=",
    "IC50, nM": 20
  },
  {
    "COMPOUND": "Cn1nc(NC(=O)N2CCC(F)(Cc3cccc(Cl)c3)CC2)ccc1=O [Compound 46]",
    "COMPARISON_SIGN": "=",
    "IC50, nM": 30
  },
  {
    "COMPOUND": "Cn1nc(NC(=O)N2CCC(Cc3cc(F)c(F)c(F)c3)CC2)ccc1=O [Compound 62]",
    "COMPARISON_SIGN": "=",
    "IC50, nM": 20
  },
  {
    "COMPOUND": "Cn1nc(NC(=O)N2CCC(OCc3ccccc3F)CC2)ccc1=O [Compound 97]",
    "COMPARISON_SIGN": "=",
    "IC50, nM": 26100
  },
  {
    "COMPOUND": "Cn1nc(NC(=O)N2CCC(Oc3cccc(Cl)c3)CC2)ccc1=O [Compound 68]",
    "COMPARISON_SIGN": "=",
    "IC50, nM": 60
  },
  {
    "COMPOUND": "Cn1nc(NC(=O)N2CC[C@@H](Oc3cc(F)cc(F)c3)C2)ccc1=O [Compound 28]",
    "COMPARISON_SIGN": ">",
    "IC50, nM": 45000
  },
  {
    "COMPOUND": "Cn1nc(NC(=O)N2CCN(Cc3cccc(Cl)c3)CC2)ccc1=O [Compound 130]",
    "COMPARISON_SIGN": "=",
    "IC50, nM": 15800
  },
  {
    "COMPOUND": "Cn1cc(-c2noc(N3CCC(Cc4cc(F)cc(F)c4)CC3)n2)ccc1=O [Compound 21]",
    "COMPARISON_SIGN": "=",
    "IC50, nM": 3000
  },
  {
    "COMPOUND": "Cn1nc(-c2nc(N3CCC(Cc4cc(F)cc(F)c4)CC3)no2)ccc1=O [Compound 115]",
    "COMPARISON_SIGN": "=",
    "IC50, nM": 10
  },
  {
    "COMPOUND": "Cn1nc(-c2nc(N3CCC(Oc4cc(F)cc(F)c4)CC3)no2)ccc1=O [Compound 111]",
    "COMPARISON_SIGN": "=",
    "IC50, nM": 610
  },
  {
    "COMPOUND": "Cn1nc(NC(=O)N2CC=C(c3ccc(Cl)cc3)CCC2)ccc1=O [Compound 134]",
    "COMPARISON_SIGN": ">",
    "IC50, nM": 45000
  },
  {
    "COMPOUND": "Cn1nc(NC(=O)N2CCC(Cc3cccc(Cl)c3)C2)ccc1=O (stereo not drawn) [Compound 25]",
    "COMPARISON_SIGN": "=",
    "IC50, nM": 5290
  },
  {
    "COMPOUND": "Cn1nc(NC(=O)N2CCC(Cc3cc(F)cc(F)c3Cl)CC2)ccc1=O [Compound 64]",
    "COMPARISON_SIGN": "=",
    "IC50, nM": 10
  },
  {
    "COMPOUND": "Cn1cc(-c2nc(N3CCC(Oc4cc(F)cc(F)c4)CC3)no2)ccc1=O [Compound 15]",
    "COMPARISON_SIGN": "=",
    "IC50, nM": 860
  },
  {
    "COMPOUND": "Cn1nc(NC(=O)N2CCC(Cc3ccc(F)c(F)c3)CC2)ccc1=O [Compound 49]",
    "COMPARISON_SIGN": "=",
    "IC50, nM": 430
  }
]
